Target: human PAH with the R408W mutation (Homo sapiens, UniProt P00439, R408W)
Construct: expressed in transfected cells
Sequence (P00439 whole entry R408W): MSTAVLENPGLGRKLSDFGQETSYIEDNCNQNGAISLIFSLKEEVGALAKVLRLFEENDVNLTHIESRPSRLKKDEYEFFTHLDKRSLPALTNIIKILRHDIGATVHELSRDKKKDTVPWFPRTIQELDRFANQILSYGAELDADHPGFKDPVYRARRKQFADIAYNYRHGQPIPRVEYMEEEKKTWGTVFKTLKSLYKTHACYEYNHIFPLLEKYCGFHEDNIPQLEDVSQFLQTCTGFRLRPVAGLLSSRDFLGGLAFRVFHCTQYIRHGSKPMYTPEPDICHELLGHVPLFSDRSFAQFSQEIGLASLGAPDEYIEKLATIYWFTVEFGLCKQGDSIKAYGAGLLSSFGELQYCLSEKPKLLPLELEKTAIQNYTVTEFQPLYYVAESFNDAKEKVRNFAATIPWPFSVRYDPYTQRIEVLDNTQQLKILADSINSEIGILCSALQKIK
Assay: Cell Based Phenylalanine Flux Assay
Details: A375 cells expressing human R408W PAH; 24 hrs with compound; 13C-Tyrosine by LC-MS; average where tested multiple times; read-out: AC50
RECORDED_METRIC: AC50

These solved cases illustrate the format of a correct answer.
>>> print(df.to_string())
                                   compound                               system_name  test_result
0  COc1ccn2ncc(C(=O)N3CCc4[nH]cnc4C3c3nc4ccc(F)cc4s3)c2c1 (centres unmarked)  human PAH with the R408W mutation (Homo sapiens, UniProt P00439, R408W)    1 to 5 µM
1  O=C(C1CC1)N1CCc2[nH]cnc2C1c1nc2ccc(F)cc2s1 (centres unmarked)  human PAH with the R408W mutation (Homo sapiens, UniProt P00439, R408W)    1 to 5 µM
2  O=C(C1CN(c2ccccn2)C1)N1CCc2[nH]cnc2C1c1nc2ccccc2s1 (centres unmarked)  human PAH with the R408W mutation (Homo sapiens, UniProt P00439, R408W)       > 5 µM

Suppose we examine the compound O=C(Cc1nc(C(F)(F)F)cs1)N1CCc2[nH]cnc2C1c1nc2ccc(Cl)cc2[nH]1 (centres unmarked) ; what AC50 value has been reported?
> 5 µM

Suppose we examine the compound Cc1nc(C(C)(C)O)oc1C(=O)N1CC(C)c2[nH]cnc2C1c1nc2c(F)cccc2s1 (centres unmarked) ; what AC50 value has been reported?
1 to 5 µM

---

Here, each record is paired with measured AC50 data.
Biological target: human PAH with the R408W mutation (Homo sapiens, UniProt P00439, R408W)
Construct: expressed in transfected cells
Experiment: Cell Based Phenylalanine Flux Assay
Conditions: A375 cells expressing human R408W PAH; 24 hrs compound incubation; 13C-Tyrosine by LC-MS; average where tested multiple times; read-out: AC50

These solved cases illustrate the format of a correct answer.
                                   compound  recorded_metric  test_result
0  O=C(c1cn(CC(F)(F)F)nc1C(F)F)N1CCc2[nH]cnc2[C@H]1c1nc2ccccc2s1             AC50     < 0.5 µM
1  O=C(c1ncc(Cl)s1)N1CCc2[nH]cnc2[C@H]1c1nc2ccccc2s1             AC50  0.5 to 1 µM
2  O=C(c1cnn2ccc(F)cc12)N1CCc2[nH]cnc2[C@H]1c1nc2ccccc2[nH]1             AC50  0.5 to 1 µM
3  O=C(c1cnn2cc(F)ccc12)N1CCc2[nH]cnc2[C@H]1c1nc2cc(F)ccc2s1             AC50  0.5 to 1 µM
4  O=C(c1cn(CC2CC2)nc1Cl)N1CCc2[nH]cnc2[C@H]1c1nc2c(F)cccc2s1             AC50     < 0.5 µM

Suppose we examine the compound Cc1nc([C@@H](C)O)oc1C(=O)N1CCc2[nH]cnc2[C@@H]1c1nc2c(F)cccc2s1 ; what AC50 value has been reported?
1 to 5 µM

Suppose we examine the compound O=C(CC1CC1)N1CCc2[nH]cnc2[C@@H]1c1nc2ccc(F)cc2[nH]1 ; what AC50 value has been reported?
1 to 5 µM
